Listing of entries alongside the reported ED50.
Test system: Streptococcus pyogenes
assay protocol: Subcutaneously administration into mice infected with Streptococcus pyogenes C 203
Type: functional
setup conditions: sc
recorded endpoint: ED50 (mg/kg)

INSERT INTO results (molecule, reading) VALUES
  ('CCNCCNC(=O)[C@H]1NC(=O)[C@H]2NC(=O)[C@H](NC(=O)[C@@H]3NC(=O)[C@H]4NC(=O)[C@@H](Cc5ccc(c(Cl)c5)Oc5cc3cc(c5O)Oc3ccc(cc3Cl)[C@H]2O)NC(=O)[C@H](N)c2ccc(O)c(c2)Oc2cc(O)cc4c2)c2ccc(O)c(c2)-c2c(O)cc(O)cc21', 1.25),
  ('CCN(CC)CCCNC(=O)[C@H]1NC(=O)[C@H]2NC(=O)[C@H](NC(=O)[C@@H]3NC(=O)[C@H]4NC(=O)[C@@H](Cc5ccc(c(Cl)c5)Oc5cc3cc(c5O[C@@H]3O[C@@H](CO)[C@@H](O)[C@H](O)[C@@H]3NC(=O)CCCCCCC(C)C)Oc3ccc(cc3Cl)[C@H]2O[C@@H]2O[C@@H](CO)[C@@H](O)[C@H](O)[C@@H]2NC(C)=O)NC(=O)[C@H](N)c2ccc(O)c(c2)Oc2cc(O)cc4c2)c2ccc(O)c(c2)-c2c(O[C@H]3O[C@H](CO)[C@@H](O)[C@@H](O)[C@@H]3O)cc(O)cc21', 0.05),
  ('CC(=O)N[C@@H]1[C@H](O[C@@H]2c3ccc(c(Cl)c3)Oc3cc4cc(c3O[C@@H]3O[C@@H](CO)[C@@H](O)[C@H](O)[C@@H]3NC(=O)CCCCCCC(C)C)Oc3ccc(cc3Cl)C[C@H]3NC(=O)[C@H](N)c5ccc(O)c(c5)Oc5cc(O)cc(c5)[C@H](NC3=O)C(=O)N[C@H]4C(=O)N[C@H]3C(=O)N[C@@H]2C(=O)N[C@H](C(=O)NCCCN)c2cc(O)cc(O[C@H]4O[C@H](CO)[C@@H](O)[C@@H](O)[C@@H]4O)c2-c2cc3ccc2O)O[C@@H](CO)[C@@H](O)[C@@H]1O', 0.08),
  ('CC(=O)NC1C(O[C@@H]2c3ccc(c(Cl)c3)Oc3cc4cc(c3O)Oc3ccc(cc3Cl)C[C@H]3NC(=O)[C@H](N)c5ccc(O)c(c5)Oc5cc(O)cc(c5)[C@H](NC3=O)C(=O)N[C@H]4C(=O)N[C@H]3C(=O)N[C@@H]2C(=O)N[C@H](C(=O)NCCN2CCCC2)c2cc(O)cc(O)c2-c2cc3ccc2O)OC(CO)C(O)C1O (some centres undefined)', 2.2),
  ('CNCCN(C)C(=O)[C@H]1NC(=O)[C@H]2NC(=O)[C@H](NC(=O)[C@@H]3NC(=O)[C@H]4NC(=O)[C@@H](Cc5ccc(c(Cl)c5)Oc5cc3cc(c5O)Oc3ccc(cc3Cl)[C@H]2O)NC(=O)[C@H](N)c2ccc(O)c(c2)Oc2cc(O)cc4c2)c2ccc(O)c(c2)-c2c(O)cc(O)cc21', 1.25),
  ('CCCCC/C=C/CCC(=O)N[C@@H]1[C@H](Oc2c3cc4cc2Oc2ccc(cc2Cl)[C@@H](O[C@@H]2O[C@@H](CO)[C@@H](O)[C@H](O)[C@@H]2NC(C)=O)[C@@H]2NC(=O)[C@H](NC(=O)[C@@H]4NC(=O)[C@H]4NC(=O)[C@@H](Cc5ccc(c(Cl)c5)O3)NC(=O)[C@H](N)c3ccc(O)c(c3)Oc3cc(O)cc4c3)c3ccc(O)c(c3)-c3c(O[C@H]4O[C@H](CO)[C@@H](O)[C@@H](O)[C@@H]4O)cc(O)cc3[C@@H](C(=O)NC3CCNCC3)NC2=O)O[C@@H](CO)[C@@H](O)[C@@H]1O', 0.08),
  ('CC(=O)N[C@@H]1[C@H](O[C@@H]2c3ccc(c(Cl)c3)Oc3cc4cc(c3O[C@@H]3O[C@@H](CO)[C@@H](O)[C@H](O)[C@@H]3NC(=O)CCCCCCC(C)C)Oc3ccc(cc3Cl)C[C@H]3NC(=O)[C@H](N)c5ccc(O)c(c5)Oc5cc(O)cc(c5)[C@H](NC3=O)C(=O)N[C@H]4C(=O)N[C@H]3C(=O)N[C@@H]2C(=O)N[C@H](C(=O)N(C)C)c2cc(O)cc(O[C@H]4O[C@H](CO)[C@@H](O)[C@@H](O)[C@@H]4O)c2-c2cc3ccc2O)O[C@@H](CO)[C@@H](O)[C@@H]1O', 0.08),
  ('CC(=O)N[C@@H]1[C@H](O[C@@H]2c3ccc(c(Cl)c3)Oc3cc4cc(c3O)Oc3ccc(cc3Cl)C[C@H]3NC(=O)[C@H](N)c5ccc(O)c(c5)Oc5cc(O)cc(c5)[C@H](NC3=O)C(=O)N[C@H]4C(=O)N[C@H]3C(=O)N[C@@H]2C(=O)N[C@H](C(=O)NCCN2CCCC2)c2cc(O)cc(O[C@H]4O[C@H](CO)[C@@H](O)[C@@H](O)[C@@H]4O)c2-c2cc3ccc2O)O[C@@H](CO)[C@@H](O)[C@@H]1O', 0.41),
  ('CC(=O)N[C@@H]1[C@H](O[C@@H]2c3ccc(c(Cl)c3)Oc3cc4cc(c3O[C@@H]3O[C@@H](CO)[C@@H](O)[C@H](O)[C@@H]3NC(=O)CCCCCCC(C)C)Oc3ccc(cc3Cl)C[C@H]3NC(=O)[C@H](N)c5ccc(O)c(c5)Oc5cc(O)cc(c5)[C@H](NC3=O)C(=O)N[C@H]4C(=O)N[C@H]3C(=O)N[C@@H]2C(=O)N[C@H](C(=O)NCCN(C)C)c2cc(O)cc(O[C@H]4O[C@H](CO)[C@@H](O)[C@@H](O)[C@@H]4O)c2-c2cc3ccc2O)O[C@@H](CO)[C@@H](O)[C@@H]1O', 0.09);

* * *

System: Streptococcus pyogenes
assay protocol: Subcutaneously administration into mice infected with Streptococcus pyogenes C 203
Type: functional
setup conditions: sc
Listing of entries alongside the reported ED50.
recorded endpoint: ED50 (mg/kg)

INSERT INTO results (compound_structure_string, study_target, reading) VALUES
  ('CN(C)CCN(C)C(=O)[C@H]1NC(=O)[C@H]2NC(=O)[C@H](NC(=O)[C@@H]3NC(=O)[C@H]4NC(=O)[C@@H](Cc5ccc(c(Cl)c5)Oc5cc3cc(c5O)Oc3ccc(cc3Cl)[C@H]2O)NC(=O)[C@H](N)c2ccc(O)c(c2)Oc2cc(O)cc4c2)c2ccc(O)c(c2)-c2c(O)cc(O)cc21', 'Streptococcus pyogenes', 1.25),
  ('N[C@H]1C(=O)N[C@@H]2Cc3ccc(c(Cl)c3)Oc3cc4cc(c3O)Oc3ccc(cc3Cl)[C@@H](O)[C@@H]3NC(=O)[C@H](NC(=O)[C@@H]4NC(=O)[C@@H](NC2=O)c2cc(O)cc(c2)Oc2cc1ccc2O)c1ccc(O)c(c1)-c1c(O)cc(O)cc1[C@@H](C(=O)NCCCN1CCOCC1)NC3=O', 'Streptococcus pyogenes', 1.4),
  ('N[C@H]1C(=O)N[C@@H]2Cc3ccc(c(Cl)c3)Oc3cc4cc(c3O)Oc3ccc(cc3Cl)[C@@H](O)[C@@H]3NC(=O)[C@H](NC(=O)[C@@H]4NC(=O)[C@@H](NC2=O)c2cc(O)cc(c2)Oc2cc1ccc2O)c1ccc(O)c(c1)-c1c(O)cc(O)cc1[C@@H](C(=O)N1CCOCC1)NC3=O', 'Streptococcus pyogenes', 1.02),
  ('CC(=O)N[C@@H]1[C@H](O[C@@H]2c3ccc(c(Cl)c3)Oc3cc4cc(c3O)Oc3ccc(cc3Cl)C[C@H]3NC(=O)[C@H](N)c5ccc(O)c(c5)Oc5cc(O)cc(c5)[C@H](NC3=O)C(=O)N[C@H]4C(=O)N[C@H]3C(=O)N[C@@H]2C(=O)N[C@H](C(=O)N2CCN(C)CC2)c2cc(O)cc(O[C@H]4O[C@H](CO)[C@@H](O)[C@@H](O)[C@@H]4O)c2-c2cc3ccc2O)O[C@@H](CO)[C@@H](O)[C@@H]1O', 'Streptococcus pyogenes', 0.95),
  ('CC(=O)N[C@@H]1[C@H](O[C@@H]2c3ccc(c(Cl)c3)Oc3cc4cc(c3O[C@@H]3O[C@@H](CO)[C@@H](O)[C@H](O)[C@@H]3NC(=O)CCCCCCC(C)C)Oc3ccc(cc3Cl)C[C@H]3NC(=O)[C@H](N)c5ccc(O)c(c5)Oc5cc(O)cc(c5)[C@H](NC3=O)C(=O)N[C@H]4C(=O)N[C@H]3C(=O)N[C@@H]2C(=O)N[C@H](C(=O)NCCCCCCCN(C)C)c2cc(O)cc(O[C@H]4O[C@H](CO)[C@@H](O)[C@@H](O)[C@@H]4O)c2-c2cc3ccc2O)O[C@@H](CO)[C@@H](O)[C@@H]1O', 'Streptococcus pyogenes', 0.18);

* * *

Listing of entries alongside the reported MIC.
Test system: Pseudomonas aeruginosa
assay protocol: In vitro minimum inhibitory concentration against Pseudomonas aeruginosa ATCC 10145
Type: functional
recorded endpoint: MIC (µg/mL)

INSERT INTO assay_data (compound_structure_string, recorded_endpoint, reading) VALUES
  ('CCN(CC)CCCNC(=O)[C@H]1NC(=O)[C@H]2NC(=O)[C@H](NC(=O)[C@@H]3NC(=O)[C@H]4NC(=O)[C@@H](Cc5ccc(c(Cl)c5)Oc5cc3cc(c5O)Oc3ccc(cc3Cl)[C@H]2O)NC(=O)[C@H](N)c2ccc(O)c(c2)Oc2cc(O)cc4c2)c2ccc(O)c(c2)-c2c(O)cc(O)cc21', 'MIC', 32),
  ('N[C@H]1C(=O)N[C@@H]2Cc3ccc(c(Cl)c3)Oc3cc4cc(c3O)Oc3ccc(cc3Cl)[C@@H](O)[C@@H]3NC(=O)[C@H](NC(=O)[C@@H]4NC(=O)[C@@H](NC2=O)c2cc(O)cc(c2)Oc2cc1ccc2O)c1ccc(O)c(c1)-c1c(O)cc(O)cc1[C@@H](C(=O)NCCN1CCCC1)NC3=O', 'MIC', 64),
  ('CN(C)CCN(C)C(=O)[C@H]1NC(=O)[C@H]2NC(=O)[C@H](NC(=O)[C@@H]3NC(=O)[C@H]4NC(=O)[C@@H](Cc5ccc(c(Cl)c5)Oc5cc3cc(c5O)Oc3ccc(cc3Cl)[C@H]2O)NC(=O)[C@H](N)c2ccc(O)c(c2)Oc2cc(O)cc4c2)c2ccc(O)c(c2)-c2c(O)cc(O)cc21', 'MIC', 64),
  ('CN(C)CCNC(=O)[C@H]1NC(=O)[C@H]2NC(=O)[C@H](NC(=O)[C@@H]3NC(=O)[C@H]4NC(=O)[C@@H](Cc5ccc(c(Cl)c5)Oc5cc3cc(c5O)Oc3ccc(cc3Cl)[C@H]2O)NC(=O)[C@H](N)c2ccc(O)c(c2)Oc2cc(O)cc4c2)c2ccc(O)c(c2)-c2c(O)cc(O)cc21', 'MIC', 16),
  ('CN(C)CCCCCCCNC(=O)[C@H]1NC(=O)[C@H]2NC(=O)[C@H](NC(=O)[C@@H]3NC(=O)[C@H]4NC(=O)[C@@H](Cc5ccc(c(Cl)c5)Oc5cc3cc(c5O)Oc3ccc(cc3Cl)[C@H]2O)NC(=O)[C@H](N)c2ccc(O)c(c2)Oc2cc(O)cc4c2)c2ccc(O)c(c2)-c2c(O)cc(O)cc21', 'MIC', 128),
  ('CCCCN(CCCC)CCCNC(=O)[C@H]1NC(=O)[C@H]2NC(=O)[C@H](NC(=O)[C@@H]3NC(=O)[C@H]4NC(=O)[C@@H](Cc5ccc(c(Cl)c5)Oc5cc3cc(c5O)Oc3ccc(cc3Cl)[C@H]2O)NC(=O)[C@H](N)c2ccc(O)c(c2)Oc2cc(O)cc4c2)c2ccc(O)c(c2)-c2c(O)cc(O)cc21', 'MIC', 64),
  ('N[C@H]1C(=O)N[C@@H]2Cc3ccc(c(Cl)c3)Oc3cc4cc(c3O)Oc3ccc(cc3Cl)[C@@H](O)[C@@H]3NC(=O)[C@H](NC(=O)[C@@H]4NC(=O)[C@@H](NC2=O)c2cc(O)cc(c2)Oc2cc1ccc2O)c1ccc(O)c(c1)-c1c(O)cc(O)cc1[C@@H](C(=O)N1CCOCC1)NC3=O', 'MIC', 64);
